# target: Voltage-gated potassium channel subunit beta-2 (Rattus norvegicus)
# assay_protocol: KvBeta enzyme negative modulators, primary screen, biochemical, NADPH fluorescence (AID 622);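 also: slope of raw intensity against log time taken from 70 to 1610 s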
# run_parameters: recombinant KvBeta, 4-cyanobenzaldehyde reduction, at 10 µM, active compounds read high
Use -0.4 as the dividing line for fluorescence slope, with the line itself on the 1 side and lower values as -1.

Consider the worked cases shown below.
CCCC(=O)Nn1cnc2c(c1=O)C1(CCCC1)Cc1ccccc1-2
1
Nc1nnc(CSc2ccc(Cl)cc2)s1
1
COc1ccc(C(=O)c2sc(NC(C)C)nc2N)cc1OC
-1
CC(=O)c1c(OCC(=O)O)ccc2c(C)cc(=O)oc12
-1

Request: Can COc1ccc(-c2oc3ncn4nc(Cc5ccccc5)nc4c3c2-c2ccc(OC)cc2)cc1 be said to have fluorescence slope at or above -0.4?
Response: 1

Request: Can CCOC(=O)c1[nH]c2cc3c(cc2c1NC(=O)CN1CCc2ccccc2C1)OCO3 be said to have fluorescence slope at or above -0.4?
Response: 1

Request: Can Cc1ccc2c(c1)C(CCN)C(=O)N2Cc1ccccc1 (configuration not stated) be said to have fluorescence slope at or above -0.4?
Response: -1

Request: Can Brc1ccc(-c2cnc3n2CCCC3)cc1 be said to have fluorescence slope at or above -0.4?
Response: -1

Request: Can CC(C)NCC(O)COc1ccc(CCOCC2CC2)cc1 (configuration not stated) be said to have fluorescence slope at or above -0.4?
Response: -1

----------
# assay_protocol: native HEK Tl+ uptake effects, second counter-screen – HEK cells, counterscreen 2, counter-screen for KCC2 modulator project, confirmation (AID 1718);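 also: run without ouabain in cells lacking the KCC2 cotransporter; slope of fluorescence scaled to its starting value between 10 and 20 s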
# run_parameters: HEK293 parental, thallium flux FluoZin-2 fluorescence slope; at 10 µM
The other results are listed elsewhere or left out. Results filed as inconclusive are left out. The source made the active and inactive calls.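 The calls were made as follows: active = thallium flux slope above the same plate's solvent-control mean plus 3 SD in both duplicate wells; inconclusive = duplicate wells that disagreed; inactive = the rest.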
# key: entry, value: thallium flux slope

Here is how some compounds turned out for thallium flux slope.
Cn1c(CCCOc2ccc(Cl)cc2Cl)n[nH]c1=S
0.00939 (inactive)
Cc1cc(C(=O)NNC(=S)Nc2ccccc2C)cs1
0.0109 (inactive)
COc1ccccc1-n1cnc2cc(NS(=O)(=O)c3ccccc3)ccc21
0.00966 (inactive)
c1cncc(-c2nnc3n2C2(CCCCC2)Cc2ccccc2-3)c1
0.00983 (inactive)
COc1ccc(C(=O)NC2(C(F)(F)F)NC(=O)N(CCCc3ccccc3)C2=O)c(OC)c1OC (stereo unspecified)
0.0109 (inactive)
CCCCn1c(=S)[nH]c2ccccc2c1=O
0.0577 (active)
COC(=O)c1sccc1NC(=O)CCC1CCCC1
0.00941 (inactive)
N#Cc1c(-c2ccc(Cl)cc2)c2c([nH]c1=S)CCCC2
0.0192 (active)

Request: GET /values?readout=thallium flux slope&item= COCCNc1nc(-n2nc(C)cc2C)nc2sc3c(c12)CCCC3
Response: 0.00908 (inactive)

Request: GET /values?readout=thallium flux slope&item= C=CCn1c(=S)[nH]c2scc(-c3ccco3)c2c1=O
Response: 0.0843 (active)

Request: GET /values?readout=thallium flux slope&item= Oc1c(C=Nc2cccc3nsnc23)ccc2ccccc12
Response: 0.0106 (inactive)

Request: GET /values?readout=thallium flux slope&item= COc1cccc2sc(Nc3nc(C)c(C(C)=O)s3)nc12
Response: 0.0124 (inactive)

Request: GET /values?readout=thallium flux slope&item= CCc1c(SCCC(=O)O)nc2ccccc2c1C
Response: 0.0104 (inactive)

Request: GET /values?readout=thallium flux slope&item= COC(=O)c1sccc1NC(=O)c1cc(OC)c(OC)c(OC)c1
Response: 0.00953 (inactive)

Request: GET /values?readout=thallium flux slope&item= Cc1cs/c(=N\N=C\c2ccc(O)cc2)n1Cc1ccco1
Response: 0.0101 (inactive)

Request: GET /values?readout=thallium flux slope&item= COC(=O)c1cccnc1NC(=S)NC(C)C
Response: 0.0178 (active)

Request: GET /values?readout=thallium flux slope&item= CCOC(=O)c1ccccc1N1C(=O)C2Sc3[nH]c(=O)sc3C(/C=C/c3ccccc3)C2C1=O (stereo unspecified)
Response: 0.0106 (inactive)

Request: GET /values?readout=thallium flux slope&item= Cc1ccc(N=Cc2c(O)n(-c3nccs3)c(=O)c3ccccc23)c(C)c1
Response: 0.00674 (active)

Request: GET /values?readout=thallium flux slope&item= O=C(c1cc(-c2ccc(O)cc2)on1)N1CCCc2ccccc21
Response: 0.0111 (inactive)

The measured values listed here are drawn from PubChem BioAssay.
